Target: SpNbp2
Test: SPOT peptide array binding signal intensity (averaged, normalized) (arbitrary units (background-subtracted, floor 0; scale differs between SH3 domains)); higher = stronger binding of the SH3 domain to the peptide
Exercise: state measured SPOT peptide array binding signal intensity for each of the binders provided.
Answers are plain numbers.

Study these solved cases before continuing.
RRARRQMGIPTISQV; 1480
TKRKRPARLIFYDSK; 584

Now take the following binder into account.
Need SPOT peptide array binding signal intensity, item NMLSRPRLAKLPSIR 577

Sourced from the supplement of paper PMC4466140
